# target desc: T1, B7-H3 on B7-H3-expressing CHO cells (Genescript) (UniProt Q5ZPR3 29-534, limits assumed)
# T1 construct: whole, on cells; also called CHO-K1/B7-H3; MFI B7-H3
# T1 sequence (looked up): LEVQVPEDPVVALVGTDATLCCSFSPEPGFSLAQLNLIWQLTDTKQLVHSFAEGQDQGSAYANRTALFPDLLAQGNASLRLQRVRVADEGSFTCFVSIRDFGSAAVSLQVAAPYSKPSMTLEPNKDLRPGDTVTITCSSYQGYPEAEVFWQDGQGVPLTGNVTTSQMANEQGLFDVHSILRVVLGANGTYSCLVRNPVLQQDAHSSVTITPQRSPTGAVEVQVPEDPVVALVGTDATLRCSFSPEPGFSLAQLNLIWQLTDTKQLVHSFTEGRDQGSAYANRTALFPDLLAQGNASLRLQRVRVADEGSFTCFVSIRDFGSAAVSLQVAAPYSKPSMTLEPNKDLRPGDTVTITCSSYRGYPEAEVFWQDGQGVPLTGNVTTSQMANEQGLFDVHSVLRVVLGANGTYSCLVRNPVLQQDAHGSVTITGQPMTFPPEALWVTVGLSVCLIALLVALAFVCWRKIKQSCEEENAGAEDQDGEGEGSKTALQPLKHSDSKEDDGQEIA
# measurement protocol: flow cytometry, B7-H3-expressing CHO cells, 10 ug/ml

binder: 40633p1.2.G9 (scFv, V domains shown, Tested as scFv-Fc (Expi293 supernatant)) VH: EVQLLESGGGLLQPGGSLRLSCAASGFSFSSYGMHWVRQAPGKGLEWVAAINSDGSRIYYADSVEGRFTISRDNSKNTLYLQMNSLRAEDTAVYYCTKYYYHYAMDVWGQGTTVTVSS VL: QSVLTQPPSASGTPGQRVTISCSGSRSDIGATTVNWYQQLPGTAPKLLIYQSHLRPSGVPDRFSGSKSGTSASLAISGLQSEDEADYYCASWDASLNTWVFGGGTKLTVL
endpoint unit: MFI
MFI @ 10 ug/ml: 67600
--
binder: 40633p1.1.G10 (scFv, V domains shown, Tested as scFv-Fc (Expi293 supernatant)) VH: EVQLLESGGGLVEPGGSLRLSCAASGFSFSSYGMHWVRQAPGKGLDWVAVINGEGSGTYYADSVKGRFTISRDNSKSTLYLQMNSLRAEDTAVYYCTKYYYNYAMDVWGQGTTVTVSS VL: QSVLTQPPSASGTPGQRVTISCSGSRTDIGTTSVNWYQQLPGTAPKLLIYQSHQRPSGVPDRFSGSKSGTSASLAISGLQSEDEADYYCASWDASQNTWVFGGGTKLTVL
endpoint unit: MFI
MFI @ 10 ug/ml: 60100
--
binder: 40511p1.2.G10 (scFv, V domains shown, Tested as scFv-Fc (Expi293 supernatant)) VH: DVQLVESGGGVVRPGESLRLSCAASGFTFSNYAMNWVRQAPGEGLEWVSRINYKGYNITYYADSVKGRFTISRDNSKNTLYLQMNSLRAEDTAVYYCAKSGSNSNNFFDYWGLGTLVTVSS VL: EIVLTQSPGTLSLSPGERATLSCRASQTVGSKLAWYQQKPGQAPRLLIYGASTRATDIPDRFSGSGSGTEFTLTISSLQSEDFAVYYCQQYINWPPLSFGGGTKVEIK
endpoint unit: MFI
MFI @ 10 ug/ml: 78500
